- subject of test: TdGSTF (Triticum turgidum)
- Construct: full length, pEXP5-CT/TOPO template, His-tagged, E. coli, Ni-IDA-Sepharose purified, homodimer
- Sequence (A0A9R0QM20 1-219): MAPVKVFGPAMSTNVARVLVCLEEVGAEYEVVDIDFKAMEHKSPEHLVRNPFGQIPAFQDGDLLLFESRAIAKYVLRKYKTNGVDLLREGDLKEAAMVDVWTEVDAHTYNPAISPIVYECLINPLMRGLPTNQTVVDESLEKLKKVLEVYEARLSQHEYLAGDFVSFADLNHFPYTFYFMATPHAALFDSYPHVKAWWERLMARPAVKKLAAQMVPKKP
- experiment notes: dose-response inhibition of GST activity
pIC50: −log10 of the molar value.
outcome measure: pIC50

>>> print(df.to_string())
                   compound_smiles  numeric_result
0  CCCCOCN(C(=O)CCl)c1c(CC)cccc1CC            5.00
